- method: Cytotoxic concentration for HEMn-MP cells depending on treatment time (CCK-8, Test Example 1-1)
- Type: cell-based, human
- applied-conditions: human, HEMn-MP cells (human epidermal melanocytes), Day 1
quantity-measured: CC50 at 1 day

>>> print(df.to_string())
                              sample_smiles  recorded_result
0                          CCCCc1ccc(O)cc1O           347 µM
1                     Oc1ccc(OCc2ccccc2)cc1           284 µM
2                       CC(=O)CCc1ccc(O)cc1         10400 µM
3  COc1cc(OC)c(C23CC4CC(CC(C4)C2)C3)cc1C(=O)NCc1ccc(O)cc1O           5.4 µM
